Entries and their melting point
recorded-metric: melting point

{"columns": ["compound", "recorded-metric", "test-result"],
 "data": [
  ["COc1c(OC)c(OC(C)=O)c2cc(OCCc3ccccc3)ccc2c1OC(C)=O", "melting point", "70 to 71 °C"],
  ["C#CCOc1ccc(CCNC(=O)C(O)Cc2ccc(C)cc2)cc1OC (stereo not given)", "melting point", "85 °C"],
  ["CCc1nc(N)nc(N)c1-c1ccc(NC)c([N+](=O)[O-])c1", "melting point", "262 to 265 °C"],
  ["CC12CCC(C1)C1(C)Oc3ccc(C(=O)/C=C/c4cc(C(=O)O)cs4)cc3C21C (stereo not given)", "melting point", "226 to 228 °C"],
  ["CCC(O)c1ccc(Cl)c2nc3n(c12)CCCN3c1c(Cl)cc(Cl)cc1Cl (stereo not given)", "melting point", "213 to 214 °C"]
]}

----------
Listed here: items and their measured melting point.

{"columns": ["molecule", "melting point"],
 "data": [
  ["CCOc1c(OC)cc(COc2ccc(N)nn2)cc1OC", "169 to 171 °C"],
  ["FC(F)(F)c1ccc(C2CNCc3[nH]c4ccccc4c32)cc1 (stereo not given)", "172 to 174 °C"],
  ["Cc1ncc(OC(=O)C2(C3CCCCC3)CCCCC2)cn1", "52 to 55 °C"],
  ["O=C(NC1CC1)c1cccc(-c2cccn3c(=O)n(Cc4cccc(C(F)(F)F)c4)nc23)c1", "157 to 158 °C"],
  ["Cc1ccc(NS(=O)(=O)c2cccs2)c2[nH]c(C3=NCCS3)cc12", "198 to 199 °C"],
  ["CC(C)Cn1c(C(O)c2ccccc2)nc2cnc3ccccc3c21 (stereo not given)", "160 to 166 °C"],
  ["CC1(C)CCCC[C@H]1[C@H](O)c1ccc(F)cc1", "105 to 108 °C"],
  ["C=CCOc1cc(N)c([N+](=O)[O-])cc1I", "74 °C"],
  ["CCCCOC(=O)c1ccc(C(C(N)=O)C(C)c2ccccc2N2CCCCC2)cc1 (stereo not given)", "148 °C"],
  ["FC(F)(F)Oc1ccc(C=Cc2nc[nH]n2)cc1", "125 to 127 °C"],
  ["OC1(C(F)(F)F)CC(c2ccc(Cl)cc2)=NN1Cc1cccnc1 (stereo not given)", "158 to 160 °C"],
  ["ClC(=NNc1ccccc1)c1ccc(Cl)cc1Cl", "88.5 to 89.5 °C"],
  ["O=C(O)CC[C@H](NC(=O)c1cc2ccccc2[nH]1)C(=O)NC(c1ccc(Cl)cc1)c1ccc(Cl)cc1", "207 °C"],
  ["CCc1cccc2c(C=O)cc(OC)c(O)c12", "114 to 115 °C"],
  ["CSc1ccc(-c2coc3ccc(C(=O)NN)cc23)cc1Cl", "207 to 208 °C"],
  ["CCOC(=O)C1COc2c(C(=O)c3ccccc3)cc(Br)cc21 (stereo not given)", "100 to 101 °C"],
  ["CNC(=O)N1CCc2[nH]cnc2C1", "213 °C"],
  ["CCCCn1c(C)c(C)cc(NC(=O)OCc2ccccc2)c1=O", "65 to 66 °C"],
  ["Cc1ccc2c(c1)c(-c1ccnc3c(C(F)(F)F)cccc13)c(C)n2CC(=O)O", "145 °C"],
  ["Cc1nc2c(CCCc3ccccc3)cccn2c1CC#N", "66.5 to 68 °C"],
  ["CC(=S)NC[C@H]1CN(c2ccc(N3CCN(C(=O)CO)CC3)c(F)c2)C(=O)O1", "163 to 165 °C"],
  ["COc1ccc(N2CCN(CCc3ccc4[nH]c(=O)oc4c3)CC2)c2ccccc12", "200 °C"],
  ["CC#CCOc1ccc(S(=O)(=O)NC(C(=O)NO)c2ccc(OCCN3CCN(C(=O)OC(C)(C)C)CC3)cc2)cc1 (stereo not given)", "92 to 95 °C"],
  ["CCCOc1cc(CCCOc2nn(C)cc2CC(=O)O)n(Cc2ccc(Cl)cc2Cl)n1", "77 to 81 °C"],
  ["[N-]=[N+]=C1c2ccccc2-c2ccc(F)cc21", "89 to 90 °C"],
  ["CC(=CN1CCC(CCCC2CCN(C=C(C)c3ccccc3)CC2)CC1)c1ccccc1", "120 °C"],
  ["Cn1c(=O)cc(CN2CCC(c3c[nH]c4ccccc34)CC2)c2ccccc21", "228 to 229 °C"],
  ["CCN(CC)C(=O)C(C)Oc1cc(-c2ccccc2)cc2ccccc12 (stereo not given)", "109 °C"],
  ["N=C(N)Nc1ccc(CCC(=O)O)cc1", "> 300 °C"],
  ["NS(=O)(=O)c1ccc(-n2nc(C(F)(F)F)cc2-c2nc3cccc(F)c3s2)cc1", "251 to 253 °C"]
]}

----------
recorded-metric: melting point

{"columns": ["molecule", "test-result"],
 "data": [
  ["Fc1cccc(F)c1COCc1nc2ccccc2n1Cc1c(F)cccc1F", "109 °C"],
  ["CNC(=O)NC1CCC(O)c2ccccc21 (configuration not stated)", "172 to 180 °C"],
  ["Cc1cnnc2c(-c3ccc(F)cc3)c(-c3ccncc3)nn12", "202 to 204 °C"],
  ["CCOc1ccc(NS(=O)(=O)c2cccc3c(N(C)C)cccc23)nn1", "194 to 198 °C"],
  ["Cc1ccc(C(=O)C(C#N)C#N)cc1", "163 °C"],
  ["COC(=O)CN(c1ccc(Cl)cc1C(=O)c1ccccc1F)S(=O)(=O)c1ccc(N)cc1", "168 to 170 °C"],
  ["Cc1ccc2ccccc2c1C1OC(=O)NC1=O (configuration not stated)", "147 to 150 °C"]
]}

----------
{"columns": ["compound", "melting point"],
 "data": [
  ["FC(F)(F)c1ccc(C2=CCC(N3CCN(Cc4ccccc4)CC3)CC2)cc1 (stereo not given)", "115 to 116 °C"],
  ["CC(C)(C)OC(=O)N[C@H](Cc1ccc(Cl)c(Cl)c1)C(=O)N1CCC[C@H]1C(=O)NCC1CCc2nc(N)ncc2C1 (stereo not given in full)", "110 to 113 °C"],
  ["CC(=O)NC[C@H]1CN(c2ccc(N3CCN(C(=O)CCCC(=O)c4ccc(NC(=O)CN)cc4)CC3)c(F)c2)C(=O)O1", "178 to 181 °C"],
  ["O=C(O)CCCCC(=NOCc1ccc(OCc2nc(-c3ccccc3)no2)cc1)c1ccccc1", "91 to 92 °C"],
  ["CCCCc1nc2cccc(C(=O)OCc3ccncc3)c2n1Cc1ccc(-c2ccccc2-c2nnn[nH]2)cc1", "179 to 180 °C"],
  ["CC(C)(C)c1cc(C=O)c(O)c(S(C)(=O)=O)c1", "134 to 136 °C"],
  ["COc1cccc(OC2CN([C@H]3CC[C@@H](c4cc5ccccc5[nH]4)CC3)C2)c1", "126 to 127 °C"],
  ["CC#CCC(CC#CC)(C(=O)O)S(=O)(=O)c1ccc(OC)cc1", "141 to 143 °C"],
  ["COc1cccc2c1c(C)c(CCC(=O)O)n2Cc1ccc(Cl)cc1", "145 °C"],
  ["CC(C)=CCCN1c2ccccc2CN1[N+](=O)[O-]", "51 to 52 °C"],
  ["Cc1cc2ncnn2nc1OCCOCCN1CCC(OC(c2ccccc2)c2ccccc2)CC1", "80 to 82 °C"],
  ["CCCCCCCCN(C)C(N)=NC#N", "101 to 104 °C"],
  ["Cc1nnc2n1-c1sc(CCc3ccc(Cl)cc3)cc1C(c1ccccc1Cl)=NC2", "162 to 164 °C"],
  ["c1ccc(-c2cncs2)cc1", "45 to 46 °C"],
  ["CCCCc1nc2c(N)nc3ccc(OCc4ccccc4)cc3c2n1CCCCNC(=O)c1ccccc1", "173 to 174 °C"],
  ["Cc1noc(NS(=O)(=O)c2ccccc2-c2ccc(-c3ncco3)cc2Cn2nccn2)c1C", "162 to 168 °C"],
  ["N#CCNC(=O)c1ccc(Cl)cc1", "185 °C"],
  ["O=C(C1=COc2cc(O)ccc2O1)N1CCN(C(c2ccc(F)cc2)c2ccc(F)cc2)CC1", "163 °C"],
  ["O=C(c1ccccc1)N1CCN(CCCN2C(=O)c3ccccc3C2=O)CC1", "100 to 104 °C"],
  ["COc1ccc(CCC(=O)Nc2c(C)c(C)c3c(c2C)[C@@H](c2ccc(C)cc2)C(C)(C)O3)cc1", "170 to 172 °C"],
  ["CCC(CNC(=O)OC(C)(C)C)n1cnc2c(N)nc3ccccc3c21 (stereo not given)", "171 to 173 °C"],
  ["COC(=O)c1cc(C(=O)c2ncc3ccc(NC(=O)OC(C)(C)C)cn23)ccc1[N+](=O)[O-]", "182 °C"],
  ["COc1cc(OC)nc(Oc2ccnc3c(Cl)cccc23)n1", "115 to 118 °C"],
  ["CSC1Oc2ccc(Cl)cc2C1=O (stereo not given)", "76 to 78 °C"],
  ["CN1CC(CCCl)Oc2cc3ccccc3nc2C1=S (stereo not given)", "114 to 116 °C"]
]}
